Where these numbers come from: patent US11932673

Collected TRF signal values appear next to each entry.
# EXPERIMENTAL TARGET: trypsin
# PROTOCOL NOTES: Fab TRF, 10 ug/mL Fab
When you answer, write just the number.

Worked examples, 2 binders total:
* KB_A06 (scFv, V domains shown) VH: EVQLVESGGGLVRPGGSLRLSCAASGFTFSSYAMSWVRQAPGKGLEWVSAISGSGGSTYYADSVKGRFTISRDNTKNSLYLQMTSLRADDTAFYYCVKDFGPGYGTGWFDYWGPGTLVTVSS VL: AVNWYQQLPGKAPKLLIYAAVRCPRILMRCKQDSDCLAGCVCGPNGFCGTPSGIPERFSGSIDRSTNSASLTISGLKTEDEADYYCQSYDSSNLNWVFGGGTKLTVLG | 242000
* KB_C09 (scFv, V domains shown) VH: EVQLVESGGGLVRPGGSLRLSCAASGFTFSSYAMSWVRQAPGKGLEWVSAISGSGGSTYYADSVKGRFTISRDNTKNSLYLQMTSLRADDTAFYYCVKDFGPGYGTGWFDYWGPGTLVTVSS VL: AVNWYQQLPGKAPKLLIYAAGRCPRILMRCKQDSDCLAGCVCGPNGFCGGGSGVPDRFSGSIDSSSNSASLTISGLRAEDEADYYCQSYDSSNHWVFGGGTKLTVLG | 289000

// next item, TRF signal requested
Prompt: Retrieve TRF signal measured for KB_B02 (scFv, V domains shown) VH: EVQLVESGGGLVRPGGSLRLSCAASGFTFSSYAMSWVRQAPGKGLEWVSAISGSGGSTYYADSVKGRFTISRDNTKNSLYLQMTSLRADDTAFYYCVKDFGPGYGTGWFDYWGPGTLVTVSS VL: AVNWYQQLPGKAPKLLIYAAVGCPRILMRCKQDSDCLAGCVCGPNGFCGTGSGIPERFSGSKSGNTASLTISGLQAEDEGDYYCAAWDDSLSGPVFGGGTKLTVLG and print it.
Completion: 56600
